The reported numbers originate from patent US8455475B2.

Target: rat B1R (bradykinin receptor 1) (Rattus norvegicus)
Construct: expressed in transfected cells; host or cells: CHO K1 cells
Sequence (P97583 whole entry): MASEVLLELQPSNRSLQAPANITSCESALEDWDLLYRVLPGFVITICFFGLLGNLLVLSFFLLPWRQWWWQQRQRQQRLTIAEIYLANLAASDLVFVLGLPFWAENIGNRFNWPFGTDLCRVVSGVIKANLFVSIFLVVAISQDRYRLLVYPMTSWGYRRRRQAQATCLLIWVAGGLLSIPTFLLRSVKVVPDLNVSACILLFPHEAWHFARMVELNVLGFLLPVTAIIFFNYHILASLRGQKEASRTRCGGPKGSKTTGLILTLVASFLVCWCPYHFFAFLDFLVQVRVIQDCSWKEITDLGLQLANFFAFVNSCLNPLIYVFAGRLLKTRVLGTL
Experiment: FLIPR Ca2+ assay (Fluo-4) on CHO K1 cells stably transfected with the B1R gene of the rat (rB1R cells): % inhibition at 10 μM / IC50, agonist Des-Arg9-bradykinin
Type: cell-based
Conditions: CHO-K1, rat B1R
Measured inhibition at 10 µM, listed per entry for reference.
Record the value in %, omitting the unit from your answer.

Past entries and their recorded results:
compound: O=C(NC1CCc2ccc(C(=O)N3CCC4(CCC(c5ccncc5)CC4)C3)cc21)c1ccccc1Cl (centres unmarked)
inhibition at 10 µM, %: 100
//
compound: CC1(C)Cc2ccc(C(=O)N3CCC4(CC3)CCN(c3ccncc3)CC4)cc2C1NC(=O)c1sccc1Cl (centres unmarked)
inhibition at 10 µM, %: 98

Provide inhibition at 10 µM value for the following compound: O=C(N[C@@H]1CCc2ccc(C(=O)N3CCC4(CCN(c5ccncc5)CC4)C3)cc21)c1cccc(F)c1Cl
105

Give the reported value of inhibition at 10 µM for this record: O=C(NC1CCc2ccc(C(=O)N3CCC4(CCN(Cc5c(F)cccc5Cl)CC4)CC3)cc21)c1c(F)cccc1Cl (centres unmarked)
76

Give me measured inhibition at 10 µM, please, for this compound: Cc1cccc(Cl)c1C(=O)NC1CCc2ccc(C(=O)N3CCC4(CCN(Cc5c(F)cccc5Cl)CC4)C3)cc21 (centres unmarked)
81

Specify measured inhibition at 10 µM for O=C(N[C@@H]1CCc2ccc(C(=O)N3CCC4(CCC(c5cccnc5)CC4)C3)cc21)c1ccccc1Cl (some centres unmarked) .
101

Hello, please tell me recorded inhibition at 10 µM for this one: Cc1ccc(F)c(C(=O)NC2CC(C)(C)c3ccc(C(=O)N4CCC5(CC4)CCN(c4ccncc4)CC5)cc32)c1Cl (centres unmarked)
102

Consider the compound O=C(N[C@@H]1CCc2ccc(C(=O)N3CCC4(CCN(c5ccncc5)CC4)C3)cc21)c1c(Cl)cccc1Cl and give its recorded inhibition at 10 µM.
105

Tell me measured inhibition at 10 µM for O=C(c1ccc2c(c1)C(N(C(=O)c1ccccc1Cl)C1CC1)CC2)N1CCC2(CCN(Cc3ccc(F)c(F)c3)CC2)C1 (centres unmarked) please.
66
